Origin of measurements: patent US5585385A

experimentalTarget: substance P receptor (Homo sapiens)
Construct: The receptor was prepared from human lymphoblast cells (IM-9); endogenous in cells; host or cells: IM-9 human lymphoblast cells (crude membrane preparation)
method: Radioligand receptor binding inhibitory activity using receptor from human lymphoblast cells (IM-9), 125I-BHSP
experimentalContext: human IM-9 cell receptor, 25° C., 30 minutes, pH 7.4, n=1
Method: Radioligand receptor binding inhibitory activity Binding inhibitory activity using receptor from human lymphoblast cells (IM-9) The method of A. Margaret "Molecular Pharmacology 42, p.458 (1992)" was modified and used. The receptor was prepared from human lymphoblast cells (IM-9). IM-9 cells (2×10^5 cells/ml) were inoculated and incubated for 3 days (one liter), which was then subjected to centrifuge for 5 minutes at 500×g to obtain cell pellets. […]
pIC50: −log10 of the molar value.
Cut-off 9 on pIC50, inclusive. At or above means label 1; below means label 0.

Worked examples, 6 compounds total:
CN1CCc2c(-c3ccccc3)c(C(=O)N(C)Cc3cc(C(F)(F)F)cc(C(F)(F)F)c3)n(C)c(=O)c2C1 [Example 50] : label 1
CN(Cc1cc(C(F)(F)F)cc(C(F)(F)F)c1)C(=O)c1c(-c2ccc(F)cc2)c2sccc2c(=O)n1C [Example 17] : label 1
CN(Cc1cc(C(F)(F)F)cc(C(F)(F)F)c1)C(=O)c1cnc2sccc2c1-c1ccc(F)cc1 [Example 24] : label 1
CN(Cc1cc(C(F)(F)F)cc(C(F)(F)F)c1)C(=O)c1c(-c2ccc(F)cc2)c2c(c(=O)n1C)N(C)CCC2 [Example 30] : label 1
COc1ccccc1CN(C)C(=O)c1c(-c2ccccc2)c2ccsc2c(=O)n1C [Example 46] : label 0
COc1ccc(-c2c(C(=O)N(C)Cc3cc(C(F)(F)F)cc(C(F)(F)F)c3)n(C)c(=O)c3ncccc23)cc1 [Example 57] : label 0

Ask: Can CN(Cc1cc(C(F)(F)F)cc(C(F)(F)F)c1)C(=O)c1c(-c2ccccc2)c2c(c(=O)n1C)CCCN2 [Example 51] be said to have pIC50 at or above 9?
Reply: label 0

Ask: Also need Cc1ccc(-c2c(C(=O)N(C)Cc3cc(C(F)(F)F)cc(C(F)(F)F)c3)n(C)c(=O)c3ncccc23)cc1 [Example 56] , thanks.
Reply: label 1

Ask: Also need Cc1ccccc1-c1c(C(=O)N(C)Cc2cc(C(F)(F)F)cc(C(F)(F)F)c2)n(C)c(=O)c2cccnc12 [Example 10] , thanks.
Reply: label 0

Ask: Also need CN(Cc1cc(C(F)(F)F)cc(C(F)(F)F)c1)C(=O)c1c(-c2ccc(F)cc2)c2cc[n+](C)cc2c(=O)n1C [Example 31] , thanks.
Reply: label 1

---

pIC50 listing for selected compounds.
experimentalTarget: substance P receptor (Homo sapiens, UniProt P25103)
Construct: The receptor was prepared from human lymphoblast cells (IM-9); endogenous in cells
Sequence (P25103 whole entry): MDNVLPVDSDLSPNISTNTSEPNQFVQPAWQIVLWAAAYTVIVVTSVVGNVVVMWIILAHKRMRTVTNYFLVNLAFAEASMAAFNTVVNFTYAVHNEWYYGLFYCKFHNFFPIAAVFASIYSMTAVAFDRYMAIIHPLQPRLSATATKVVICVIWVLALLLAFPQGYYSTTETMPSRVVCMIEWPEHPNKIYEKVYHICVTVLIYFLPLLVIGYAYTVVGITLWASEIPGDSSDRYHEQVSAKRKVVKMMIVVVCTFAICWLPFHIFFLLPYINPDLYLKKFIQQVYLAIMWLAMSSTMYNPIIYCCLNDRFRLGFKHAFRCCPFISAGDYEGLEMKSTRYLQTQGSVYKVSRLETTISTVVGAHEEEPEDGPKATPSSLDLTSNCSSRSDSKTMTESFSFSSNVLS
method: Radioligand receptor binding inhibitory activity using receptor from human lymphoblast cells (IM-9), 125I-BHSP
experimentalContext: human IM-9 cell receptor, 25° C., 30 minutes, pH 7.4, n=1
pIC50 field: float, defined as -log10 of concentration (mol/L).

CN(Cc1cc(C(F)(F)F)cc(C(F)(F)F)c1)C(=O)c1c(-c2ccccc2)c2c(c(=O)n1C)NCCC2 [Example 55] : 9.15
Cc1ccc(-c2c3c(c(=O)n(C)c2C(=O)N(C)Cc2cc(C(F)(F)F)cc(C(F)(F)F)c2)CN(C)CC3)cc1 [Example 59] : 9.92

Ask: Lookup: pIC50 / substance P receptor (Homo sapiens, UniProt P25103) / CN(Cc1cc(C(F)(F)F)cc(C(F)(F)F)c1)C(=O)c1c(-c2ccc(F)cc2)c2c(c(=O)n1C)CCCN2 [Example 27]
Reply: 9.74

Ask: Also need COc1ccccc1CN(C)C(=O)c1c(-c2ccc(F)cc2)c2cccnc2c(=O)n1C [Example 4] , thanks.
Reply: 8.60

Ask: Also need CN(Cc1cc(C(F)(F)F)cc(C(F)(F)F)c1)C(=O)c1c(-c2ccc(F)cc2)c2cscc2c(=O)n1C [Example 18] , thanks.
Reply: 9.44

Ask: Also need CN(Cc1cc(C(F)(F)F)cc(C(F)(F)F)c1)C(=O)c1c(-c2ccc(F)cc2)c2scnc2c(=O)n1C [Example 41] , thanks.
Reply: 8.96

Ask: Also need CN(Cc1cc(C(F)(F)F)cc(C(F)(F)F)c1)C(=O)c1c(-c2ccccc2)c2ccsc2c(=O)n1C [Example 44] , thanks.
Reply: 9.62
